# target under test: Hydroxycarboxylic acid receptor 3 (Homo sapiens)
# Sequence (P49019 whole entry): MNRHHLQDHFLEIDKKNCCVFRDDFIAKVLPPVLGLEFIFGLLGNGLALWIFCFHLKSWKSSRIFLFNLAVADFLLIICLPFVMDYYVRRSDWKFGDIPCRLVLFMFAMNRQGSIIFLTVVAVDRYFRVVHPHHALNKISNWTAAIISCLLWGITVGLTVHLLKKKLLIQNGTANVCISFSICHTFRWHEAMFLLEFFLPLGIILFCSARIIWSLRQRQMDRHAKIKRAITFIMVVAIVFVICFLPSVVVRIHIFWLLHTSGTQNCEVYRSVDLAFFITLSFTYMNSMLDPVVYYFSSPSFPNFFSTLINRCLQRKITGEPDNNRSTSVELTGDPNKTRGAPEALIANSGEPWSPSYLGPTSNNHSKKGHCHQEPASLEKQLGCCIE
# protocol details: Agonist activity at human GPR109b expressed in human adipocytes assessed as decrease in intracellular cAMP level by HTRF assay
# Type: functional, cell-based
# experimental context: read-out: Log EC50 (converted)
readout: EC50
# do not omit the unit; it follows the number

Could you share which EC50 value was measured for CC(C)c1cc(C(=O)O)n[nH]1 ? 41.7 µM

Could you share which EC50 value was measured for O=C(O)c1cccnc1 ? 75.9 µM

Could you share which EC50 value was measured for CCCc1cc(-c2nnn[nH]2)n[nH]1 ? 0.724 µM

Could you share which EC50 value was measured for CCCCc1cc(C(=O)O)n[nH]1 ? 11.7 µM

Could you share which EC50 value was measured for c1c(-c2nnn[nH]2)n[nH]c1C1CC1 ? 3.24 µM

Could you share which EC50 value was measured for CCCCCc1cc(C(=O)O)[nH]n1 ? 18.6 µM

Could you share which EC50 value was measured for CCCCc1cc(-c2nnn[nH]2)n[nH]1 ? 7.59 µM

Could you share which EC50 value was measured for CCc1[nH]nc(-c2nnn[nH]2)c1F ? 12.3 µM
